experiment: Inhibitory concentration required to double thrombin clotting time in batch 1; assay type: functional, Homo sapiens
measuredAttribute: IC50

Q: Determine from records and report IC50 for COC(=O)[C@@H](O)[C@H](CCCCN)NC(=O)[C@@H]1CCCN1C(=O)[C@H](N)Cc1ccccc1
Ans: > 300 µM

Reference source: ChEMBL document CHEMBL1150032
